- System: Mustela putorius furo
- assay_method_text: In vivo Myocardial MRI signal intensity (MRI IE)in ferrets induced by the compound at 50 umol/kg was measured at 180 min.
- Format: functional, Myocardium
Cut-off 50% on IE: below means label 1, at or above means label 0.

structure_as_smiles: CCC(=O)OCCN(CCN(CCOC(=O)CC)CC(=O)N(CC(=O)O)CC(=O)O)CC(=O)N(CC(=O)O)CC(=O)O
tested_on: Mustela putorius furo
qualitative_label: label 1

Threshold test, IE < 50%: "CCCCCC(=O)OCCN(CCN(CCOC(=O)CCCCC)CC(=O)N(CC(=O)O)CC(=O)O)CC(=O)N(CC(=O)O)CC(=O)O"
label 1

Cool, now "CCCC(=O)OCCN(CCN(CCOC(C)=O)CC(=O)N(CC(=O)O)CC(=O)O)CC(=O)N(CC(=O)O)CC(=O)O"
label 1

Cool, now "CCCCCCCCCCCCCC(=O)OCCN(CCN(CCOC(=O)CCCCCCCCCCCCC)CC(=O)N(CC(=O)O)CC(=O)O)CC(=O)N(CC(=O)O)CC(=O)O"
label 0

Cool, now "CCCC(=O)OCCN(CCN(CCOC(=O)CCC)CC(=O)N(CC(=O)O)CC(=O)O)CC(=O)N(CC(=O)O)CC(=O)O"
label 1

* * *

- assay_method_text: Aqueous solubility of the compound
- Format: physicochemical
- condition_info: water; read-out: S
measurement_label: solubility (mM)
All answers are understood in mM, so give the number only.

As a guide, the following entries are already answered.
structure_as_smiles: CCC(=O)OCCN(CCN(CCOC(=O)CC)CC(=O)N(CC(=O)O)CC(=O)O)CC(=O)N(CC(=O)O)CC(=O)O
units_text: mM
solubility: 7
//
structure_as_smiles: CCCCCC(=O)OCCN(CCN(CCOC(=O)CCCCC)CC(=O)N(CC(=O)O)CC(=O)O)CC(=O)N(CC(=O)O)CC(=O)O
units_text: mM
solubility: 0.5
//
structure_as_smiles: CC(=O)OCCN(CCN(CCOC(C)=O)CC(=O)N(CC(=O)O)CC(=O)O)CC(=O)N(CC(=O)O)CC(=O)O
units_text: mM
solubility: 30
//
structure_as_smiles: CCCC(=O)OCCN(CCN(CCOC(C)=O)CC(=O)N(CC(=O)O)CC(=O)O)CC(=O)N(CC(=O)O)CC(=O)O
units_text: mM
solubility: 25
//
structure_as_smiles: CCCCCCCCCCCCCC(=O)OCCN(CCN(CCOC(=O)CCCCCCCCCCCCC)CC(=O)N(CC(=O)O)CC(=O)O)CC(=O)N(CC(=O)O)CC(=O)O
units_text: mM
solubility: 0.015

Shifting focus to the compound that follows.
Form field: reported solubility of "CCCC(=O)OCCN(CCN(CCOC(=O)CCC)CC(=O)N(CC(=O)O)CC(=O)O)CC(=O)N(CC(=O)O)CC(=O)O"
5
